Target: JAK2 kinase activity on STAT5 in TF1 cells (Homo sapiens, UniProt O60674)
Sequence (O60674 whole entry): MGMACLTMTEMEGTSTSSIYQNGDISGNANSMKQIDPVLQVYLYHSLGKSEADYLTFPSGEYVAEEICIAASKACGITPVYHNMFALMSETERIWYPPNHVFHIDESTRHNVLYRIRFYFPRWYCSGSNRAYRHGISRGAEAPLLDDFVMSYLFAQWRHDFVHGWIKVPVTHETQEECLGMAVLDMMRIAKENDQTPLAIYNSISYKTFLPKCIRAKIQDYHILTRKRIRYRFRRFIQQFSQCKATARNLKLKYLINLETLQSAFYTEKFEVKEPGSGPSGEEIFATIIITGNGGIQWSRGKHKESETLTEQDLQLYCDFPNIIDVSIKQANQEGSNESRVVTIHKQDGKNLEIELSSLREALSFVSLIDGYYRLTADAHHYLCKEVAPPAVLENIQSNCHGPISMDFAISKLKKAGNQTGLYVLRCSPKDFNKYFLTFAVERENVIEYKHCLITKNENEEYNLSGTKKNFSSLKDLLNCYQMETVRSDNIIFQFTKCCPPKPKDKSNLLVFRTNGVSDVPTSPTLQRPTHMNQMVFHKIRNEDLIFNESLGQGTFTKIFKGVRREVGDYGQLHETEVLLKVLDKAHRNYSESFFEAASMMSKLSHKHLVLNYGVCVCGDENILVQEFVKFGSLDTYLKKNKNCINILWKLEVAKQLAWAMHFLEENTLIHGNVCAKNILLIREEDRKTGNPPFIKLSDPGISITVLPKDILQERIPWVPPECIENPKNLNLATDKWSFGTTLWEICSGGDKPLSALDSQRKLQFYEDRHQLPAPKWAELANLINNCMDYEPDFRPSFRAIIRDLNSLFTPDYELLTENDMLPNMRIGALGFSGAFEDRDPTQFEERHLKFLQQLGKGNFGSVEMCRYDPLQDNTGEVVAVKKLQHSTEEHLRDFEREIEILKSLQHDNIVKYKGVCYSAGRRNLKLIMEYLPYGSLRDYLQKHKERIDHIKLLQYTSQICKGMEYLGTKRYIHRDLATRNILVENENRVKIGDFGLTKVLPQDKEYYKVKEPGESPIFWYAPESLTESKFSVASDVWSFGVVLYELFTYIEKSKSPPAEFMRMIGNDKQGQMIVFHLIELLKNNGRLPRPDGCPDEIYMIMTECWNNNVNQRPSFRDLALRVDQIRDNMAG
Experiment: pSTAT5 cell assay (MSD; TF1 cells, 30 ng/mL IL-3 stimulation)
Settings: 30 ng/mL IL-3, 15 minutes
pIC50: −log10 of the molar value.
metric: pIC50

Consider the reported pIC50 for these compounds:
* C[C@@H]1CN(c2nc(-c3ccc(=O)n(C(F)F)c3)cn3nccc23)C(=O)[C@]1(C#N)C1CC1 [Example 210] | 5.00 to 5.30
* C[C@@H]1CN(c2nc(-c3cnn(C45CC(C#N)(C4)C5)c3)cn3ncc(F)c23)C(=O)[C@]1(C#N)C1CC1 [Example 297] | 5.30 to 6.00
* C[C@@H]1CN(c2nc(-c3cnn(C4CCOCC4)c3)cn3nccc23)C(=O)[C@]1(C#N)C1CC1 [Example 203] | > 7.00
* C[C@@H]1CN(c2ccnn3cc(-c4ccn(C)c(=O)c4)cc23)C(=O)[C@]1(C#N)C1CC1 [Example 79] | < 5.00

Input line: Entry CO[C@H]1C[C@H](n2cc(-c3cn4ncc(F)c4c(N4C[C@@H](C)[C@@](C#N)(C5CC5)C4=O)n3)cn2)C1 [Example 299] needs its pIC50 filled in; supply it.
Output line: 6.00 to 7.00

* * *

Target: JAK1 kinase activity on STAT3 in TF1 cells (Homo sapiens)
Test: pSTAT3 cell assay (MSD; TF1 cells, 30 ng/mL IL-6 stimulation)
Conditions: 30 ng/mL IL-6, 15 minutes
pIC50: −log10 of the molar value. Counter-ions that a name gives are not always drawn.
metric: pIC50

• C[C@@H]1CN(c2ccnn3cc(-c4cc[nH]n4)cc23)C(=O)[C@]1(C#N)C1CC1 [Example 66, trifluoroacetate] = 5.00 to 5.30
• C[C@@H]1CN(c2nc(-c3cnn(CC#N)c3)cn3ncc(F)c23)C(=O)[C@]1(C#N)C1CC1 = 5.30 to 6.00
• C[C@@H]1CN(c2ccnn3cc(-c4cnn(C5CC5)c4)cc23)C(=O)[C@]1(C#N)C1CC1 = 5.30 to 6.00
• C[C@@H]1CN(c2ccnn3cc(-c4cnn(-c5ccncc5)c4)cc23)C(=O)[C@]1(C#N)C1CC1 = 5.30 to 6.00
• C[C@@H]1CN(c2nc(-c3cnn(C4CC4)c3)cc3ncsc23)C(=O)[C@]1(C#N)C1CC1 = > 7.00
• C[C@@H]1CN(c2ccnn3cc(-c4cncc(F)c4)cc23)C(=O)[C@]1(C#N)C1CC1 = 5.00 to 5.30
• C[C@@H]1CN(c2ccnn3cc(-c4cnn(C(F)F)c4)cc23)C(=O)[C@]1(C#N)C1CC1 = 5.30 to 6.00
• Cn1cc(-c2cc3c(N4CC[C@@](C#N)(C5CC5)C4=O)ccnc3[nH]2)cn1 = 6.00 to 7.00
• C[C@@H]1CN(c2ccnn3cc(-c4ccn(C)n4)cc23)C(=O)[C@]1(C#N)C1CC1 = < 5.00

Input line: Return pIC50 (reported value) for this molecule: `C[C@@H]1CN(c2ccnn3cc(-c4ccnc(C(F)(F)F)c4)cc23)C(=O)[C@]1(C#N)C1CC1`
Output line: 5.00 to 5.30

* * *

Target: JAK1 kinase activity on STAT3 in TF1 cells (Homo sapiens, UniProt P23458)
Sequence (P23458 whole entry): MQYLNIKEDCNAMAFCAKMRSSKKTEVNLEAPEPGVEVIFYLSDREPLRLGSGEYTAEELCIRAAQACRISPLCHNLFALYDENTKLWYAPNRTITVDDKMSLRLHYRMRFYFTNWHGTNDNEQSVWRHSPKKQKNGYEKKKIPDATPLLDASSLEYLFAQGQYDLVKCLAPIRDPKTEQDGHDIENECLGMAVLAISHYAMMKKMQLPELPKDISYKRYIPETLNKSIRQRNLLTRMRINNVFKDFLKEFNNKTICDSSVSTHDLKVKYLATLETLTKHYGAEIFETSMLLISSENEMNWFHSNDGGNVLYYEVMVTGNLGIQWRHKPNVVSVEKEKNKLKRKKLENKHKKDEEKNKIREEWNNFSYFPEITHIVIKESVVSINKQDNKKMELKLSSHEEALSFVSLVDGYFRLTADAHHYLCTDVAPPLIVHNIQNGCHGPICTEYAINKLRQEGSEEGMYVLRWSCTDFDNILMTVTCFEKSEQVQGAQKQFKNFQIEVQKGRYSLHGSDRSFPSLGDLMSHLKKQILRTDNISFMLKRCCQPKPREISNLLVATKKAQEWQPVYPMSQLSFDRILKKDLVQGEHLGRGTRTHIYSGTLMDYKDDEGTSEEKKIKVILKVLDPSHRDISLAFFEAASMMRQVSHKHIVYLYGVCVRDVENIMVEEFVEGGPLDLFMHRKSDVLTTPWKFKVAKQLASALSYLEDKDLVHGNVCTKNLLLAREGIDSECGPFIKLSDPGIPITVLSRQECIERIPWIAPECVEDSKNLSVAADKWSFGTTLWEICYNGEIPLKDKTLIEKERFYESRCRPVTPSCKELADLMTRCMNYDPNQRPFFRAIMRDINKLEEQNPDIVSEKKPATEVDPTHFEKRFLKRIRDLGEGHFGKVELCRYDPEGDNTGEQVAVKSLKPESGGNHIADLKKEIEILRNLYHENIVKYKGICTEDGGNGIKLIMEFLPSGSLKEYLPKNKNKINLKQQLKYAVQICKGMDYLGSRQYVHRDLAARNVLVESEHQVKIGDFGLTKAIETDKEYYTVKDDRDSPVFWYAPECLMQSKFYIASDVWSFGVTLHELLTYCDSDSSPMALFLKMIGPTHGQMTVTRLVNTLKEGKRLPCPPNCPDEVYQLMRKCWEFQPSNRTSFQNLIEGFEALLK
Assay: pSTAT3 cell assay (MSD; TF1 cells, 30 ng/mL IL-6 stimulation)
Settings: 30 ng/mL IL-6, 15 minutes
pIC50: −log10 of the molar value. Structures can show the parent of a compound that is named as a salt.
# pIC50 listing for each entry below

* C[C@@H]1CN(c2nc(-c3ccc4cnn(C)c4c3)cn3nccc23)C(=O)[C@]1(C#N)C1CC1 [Example 259, trifluoroacetate] | > 7.00
* C[C@@H]1CN(c2nc(-c3ccc(C#N)nc3)cn3nccc23)C(=O)[C@]1(C#N)C1CC1 | 5.30 to 6.00
* C[C@H]1CN(c2ccnn3cc(-c4cnn(C)c4)cc23)C(=O)[C@]1(C#N)C1CC1 | < 5.00
* C[C@@H]1CN(c2ccnn3cc(-c4cnn(C5CC(F)(F)C5)c4)cc23)C(=O)[C@]1(C#N)C1CC1 | 6.00 to 7.00
* CC(C)n1cc(-n2nc(N3C[C@@H](C)[C@@](C#N)(C4CC4)C3=O)c3ccncc32)cn1 | 5.30 to 6.00

Now for a further compound.
Input line: Assign pIC50 to the following record: `Cc1nn(C)cc1-c1cc2c(N3C[C@@H](C)[C@@](C#N)(C4CC4)C3=O)ccnn2c1`
Output line: 5.30 to 6.00

* * *

Biological target: human JAK1 kinase domain (JH1) (Homo sapiens)
Construct: recombinantly generated catalytic kinase (also known as JH1) domain of human JAK1, JAK2, JAK3 and TYK2
Experiment: JH1 biochemical assay for JAK1 (ADP-Glo kinase assay, recombinant JH1 catalytic domain, JAK3-342 peptide, 35 μM ATP)
Settings: JH1 kinase domain, ADP-Glo
pIC50: −log10 of the molar value. Where a name gives a salt, the structure may show the parent alone.
Reported pIC50 values for the following compounds.

* C[C@@H]1CN(c2nc(-c3cnn(C)c3)cn3nccc23)C(=O)[C@]1(C#N)C1CC1 | > 7.00

Input line: Give pIC50 for the following compound: CCc1ccc(-c2cc3c(N4C[C@@H](C)[C@@](C#N)(C5CC5)C4=O)ccnn3c2)cn1 [Example 174, trifluoroacetate]
Output line: 6.00 to 7.00

Input line: Specify pIC50 for `[2H]C([2H])([2H])n1cc(-c2cn3nccc3c(N3C[C@@H](C)[C@@](C#N)(C4CC4)C3=O)n2)cn1` and stop.
Output line: > 7.00

Input line: Look up and state reported pIC50 for Cn1cc(-c2cc3c(N4CC[C@@](C)(C#N)C4=O)ccnn3c2)cn1 (single isomer, unassigned)
Output line: 5.30 to 6.00

Input line: Look up and state reported pIC50 for `C[C@@H]1CN(c2ccnn3cc(-c4c[nH]c5ncccc45)cc23)C(=O)[C@]1(C#N)C1CC1`
Output line: 6.00 to 7.00

Input line: Read off the recorded pIC50 for C[C@@H]1CN(c2ccnn3cc(-c4cccc(CC#N)n4)cc23)C(=O)[C@]1(C#N)C1CC1 [Example 125, trifluoroacetate]
Output line: 6.00 to 7.00

Input line: Given `CC[C@@H]1CN(c2ccnn3cc(-c4cnn(C)c4)cc23)C(=O)[C@@]1(C#N)C1CC1` , respond with its pIC50.
Output line: < 5.00

Input line: Provide measured pIC50 value, entry: `C[C@@H]1CN(c2ccnn3cc(-c4ccnc(C#N)c4)cc23)C(=O)[C@]1(C#N)C1CC1`
Output line: 6.00 to 7.00

Input line: Report pIC50, nothing else, for this compound: `CC(C)n1cc(-c2cc3c(N4C[C@@H](C)[C@@](C#N)(C5CC5)C4=O)ccnn3c2)cn1`
Output line: > 7.00

* * *

// pIC50 lookup, one value per entry
Target: human JAK1 kinase domain (JH1) (Homo sapiens, UniProt P23458)
Construct: recombinantly generated catalytic kinase (also known as JH1) domain of human JAK1, JAK2, JAK3 and TYK2
Assay: JH1 biochemical assay for JAK1 (ADP-Glo kinase assay, recombinant JH1 catalytic domain, JAK3-342 peptide, 35 μM ATP)
Conditions: JH1 kinase domain, ADP-Glo
pIC50: −log10 of the molar value. Where a name gives a salt, the structure may show the parent alone.

• C[C@@H]1CN(c2ccnn3cc(-c4cnn(C)c4)cc23)C(=O)[C@]1(C#N)C1COC1 = < 5.00
• C[C@H]1C[C@@](C#N)(C2CC2)C(=O)N1c1ccnn2cc(-c3cnn(C)c3)cc12 = < 5.00
• COc1cc(-c2cc3c(N4CC[C@@](C#N)(C5CC5)C4=O)ccnn3c2)ccn1 = 6.00 to 7.00
• C[C@@H]1CN(c2ccnn3cc(-c4cnc5cnccn45)cc23)C(=O)[C@]1(C#N)C1CC1 [Example 116, trifluoroacetate] = 6.00 to 7.00
• C[C@@H]1CN(c2ccnn3cc(-c4cncc(C(F)(F)F)c4)cc23)C(=O)[C@]1(C#N)C1CC1 = 5.30 to 6.00

Consider now this further compound.
Input line: Provide pIC50 value for the following compound: C[C@@H]1CN(c2ccnn3cc(-c4cccc5cncn45)cc23)C(=O)[C@]1(C#N)C1CC1 [Example 128, trifluoroacetate]
Output line: 6.00 to 7.00

* * *

Target: human JAK2 kinase domain (JH1) (Homo sapiens)
Construct: recombinantly generated catalytic kinase (also known as JH1) domain of human JAK1, JAK2, JAK3 and TYK2
Sequence (O60674 849-1124 limits assumed): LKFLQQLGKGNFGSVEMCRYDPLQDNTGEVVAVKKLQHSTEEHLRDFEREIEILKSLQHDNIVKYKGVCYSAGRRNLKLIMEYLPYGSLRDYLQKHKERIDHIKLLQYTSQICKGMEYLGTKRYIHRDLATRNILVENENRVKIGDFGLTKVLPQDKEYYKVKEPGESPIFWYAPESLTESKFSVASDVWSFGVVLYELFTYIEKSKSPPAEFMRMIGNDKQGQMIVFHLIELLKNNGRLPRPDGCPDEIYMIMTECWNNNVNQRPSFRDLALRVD
Assay: JH1 biochemical assay for JAK2 (ADP-Glo kinase assay, recombinant JH1 catalytic domain, JAK3-974 peptide, 15 μM ATP)
Conditions: JAK2 JH1, ADP-Glo
Counter-ions that a name gives are not always drawn.
metric: IC50

Take a look at these entries with their results.
- C[C@@H]1CN(c2nn(-c3cnn(C(F)F)c3)c3cnccc23)C(=O)[C@]1(C#N)C1CC1: 1000 to 5000 nM
- C[C@@H]1CN(c2ccc3ncc(-c4cnn(C)c4)cn23)C(=O)[C@]1(C#N)C1CC1: > 10000 nM

Input line: Name the recorded IC50 of the compound listed here: `C[C@@H]1CN(c2cc(-c3cnn(C(F)F)c3)cn3ncc(F)c23)C(=O)[C@]1(C#N)C1CC1`
Output line: 1000 to 5000 nM

Input line: Output IC50 of Cc1ccc(-c2cn3nccc3c(N3C[C@@H](C)[C@@](C#N)(C4CC4)C3=O)n2)cn1 [Example 233, trifluoroacetate]
Output line: 100 to 1000 nM

Input line: # return recorded IC50 for input `C[C@@H]1CN(c2nc(-c3cnn([C@H]4C[C@@](C)(O)C4)c3)cn3ncc(F)c23)C(=O)[C@]1(C#N)C1CC1`
Output line: < 100 nM

Input line: Supply IC50 value. Item: C[C@@H]1CN(c2nc(-c3cncc(C(F)(F)F)c3)cn3nccc23)C(=O)[C@]1(C#N)C1CC1 [Example 260, trifluoroacetate]
Output line: 1000 to 5000 nM

Input line: # return recorded IC50 for entry `C[C@@H]1CN(c2nc(-c3cnn(CC#N)c3)cn3ncc(F)c23)C(=O)[C@]1(C#N)C1CC1`
Output line: 100 to 1000 nM

Input line: Give the value of IC50 reported for the following: C[C@@H]1CN(c2nc(-c3cncc(O)c3)cn3nccc23)C(=O)[C@]1(C#N)C1CC1 [Example 258, trifluoroacetate]
Output line: 100 to 1000 nM

Input line: Quote IC50 reported for `C[C@@H]1CN(c2cc(-c3cnn(C(F)F)c3)cc3ncsc23)C(=O)[C@]1(C#N)C1CC1` please.
Output line: 100 to 1000 nM
